Molecular target: T1, Human BAFF (residues 82-285) (human, UniProt Q9Y275 82-285)
T1 construct: also called BAFF82-285
T1 sequence (Q9Y275 82-285): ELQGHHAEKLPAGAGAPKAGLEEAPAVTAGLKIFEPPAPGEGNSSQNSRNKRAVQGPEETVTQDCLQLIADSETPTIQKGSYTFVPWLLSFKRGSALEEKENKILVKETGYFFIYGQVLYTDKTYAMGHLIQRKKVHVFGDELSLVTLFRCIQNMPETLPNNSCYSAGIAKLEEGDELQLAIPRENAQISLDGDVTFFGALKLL
Test: SPR (BIAcore 3000), BAFF immobilized, 1:1 model
Reported metric: pKd
Scale for pKd: -log10 of concentration given in mol/L; no unit attached.

Look up pKd for this binder: AGQCSQNEYFDSLLHACIPCQLRCSSNTPPLTCQRYCNASVTNSVKG (Fc fusion, not shown: a dimerising Fc or GST, also called BCMA(wt)-Fc; BCMA-Fc wt) [BCMA-Fc]
8.31
